For each record, write down the corresponding Papp at 2 µg/mL.
Assay: skin-PAMPA permeability assay
Format: in vitro ADME
Settings: concentration 2 µg/mL
// note: answer is a bare numeric in ×10⁻⁶ cm/s

I would be grateful if you could share the reported Papp at 2 µg/mL for CC(=O)C1=C(O)C=C2Oc3c(C(C)=O)c(O)c(C)c(O)c3[C@@]2(C)C1=O [(+)-usnic acid] .
7.53

I would be grateful if you could share the reported Papp at 2 µg/mL for CC(=O)C1=C(O)C=C2Oc3c(C(C)=O)c(O)c(C)c(O)c3[C@]2(C)C1=O [(−)-usnic acid] .
7.46

----------
Experiment: skin-PAMPA permeability assay
Type: in vitro ADME
Details: concentration 4 µg/mL
For each record, write down the corresponding Papp at 4 µg/mL.
// note: answer is a bare numeric in ×10⁻⁶ cm/s

I would be grateful if you could share the reported Papp at 4 µg/mL for CC(=O)C1=C(O)C=C2Oc3c(C(C)=O)c(O)c(C)c(O)c3[C@@]2(C)C1=O [(+)-usnic acid] .
7.9

I would be grateful if you could share the reported Papp at 4 µg/mL for CC(=O)C1=C(O)C=C2Oc3c(C(C)=O)c(O)c(C)c(O)c3[C@]2(C)C1=O [(−)-usnic acid] .
8.28
